# credit: patent US20190055314A1

Kindly state Kd for each of the entries shown.
Target: T1, human CD137-His6 (Sino Biological #10041-H08H) (human, UniProt Q07011 24-186)
T1 construct: Bought; also called human CD137 protein; not shown: His6 tag
Assay: SPR Biacore, IgG
Could you kindly put the unit after your number?

Example cases with answers are listed next.
• AG10080 (antibody, human IgG4 S228P, kappa, V domains shown, also called IgG of Fab 4217) VH: EVQLVESGGGLVQPGGSLRLSCAASGYSISSGYYWDWIRQAPGKGLEWVSSISGDGDTTYYADSVKGRFTISRDNSKNTLYLQLNSLRAEDTAVYYCAREYYGYGYALDYWGQGTLVTVSS VL: DIQLTQSPSSLSASVGDRVTITCRASQGISSYLAWYQQKPGKAPKLLIYDASSLESGVPSRFSGSGSGTDFTLTISSLQPEDFATYYCQQYYSTPLTFGQGTKVEIKR = 10 nM
• AG10126 (antibody, human IgG4 S228P, kappa, V domains shown, also called IgG of Fab 5316) VH: EVQLVESGGGLVQPGGSLRLSCAASGYSISSGYHWAWIRQAPGKGLEWVSSISGDGSSTYYADSVKGRFTISRDNSKNTLYLQLNSLRAEDTAVYYCAREGSDAVTGDWFAYWGQGTLVTVSS VL: DIQLTQSPSSLSASVGDRVTITCRASQGVGTYLAWYQQKPGKAPKLLIYDASSLESGVPSRFSGSGSGTDFTLTISSLQPEDFATYYCQQGYSLWTFGQGTKVEIKR = 14 nM
• AG10127 (antibody, human IgG4 S228P, kappa, V domains shown, also called IgG of Fab 5318) VH: EVQLVESGGGLVQPGGSLRLSCAASGFSLSTSGVAVGWIRQAPGKGLEWLALIDWDDDKYYSTSLKSRLTISRDNSKNTLYLQLNSLRAEDTAVYYCAREGSTAVAGDWFAYWGQGTLVTVSS VL: DIQLTQSPSSLSASVGDRVTITCQASQDIRTFLAWYQQKPGKAPKLLIYDASNRATGIPSRFSGSGSGTDFTLTISSLQPEDFATYYCQQGYSTWTFGQGTKVEIKR = 9.6 nM
• AG10058 (antibody, human IgG4 S228P, kappa, V domains shown) VH: EVQLVESGGGLVQPGGSLRLSCAASGFSLSTSGVGVGWIRQAPGKGLEWLALIDWDDDKYYSPSLKSRLTISRDNSKNTLYLQLNSLRAEDTAVYYCARGGSDTVLGDWFAYWGQGTLVTVSS VL: DIQLTQSPSSLSASVGDRVTITCRASQSVSPYLAWYQQKPGKAPKLLIYDASSLESGVPSRFSGSGSGTDFTLTISSLQPEDFATYYCQQGYSLWTFGQGTKVEIKR = 5.9 nM
• AG10060 (antibody, human IgG4 S228P, kappa, V domains shown, also called IgG of Fab 5359) VH: EVQLVESGGGLVQPGGSLRLSCAASGFSLSTSGVGVGWIRQAPGKGLEWLALIDWADDKYYSPSLKSRLTISRDNSKNTLYLQLNSLRAEDTAVYYCARGGSDAVLGDWFAYWGQGTLVTVSS VL: DIQLTQSPSSLSASVGDRVTITCRASQGIGSYLAWYQQKPGKAPKLLIYDASNLETGVPSRFSGSGSGTDFTLTISSLQPEDFATYYCQQGYSIWTFGQGTKVEIKR = 1.1 nM

State recorded Kd for all listed binders.
1. AG10128 (antibody, human IgG4 S228P, kappa, V domains shown, also called IgG of Fab 5342) VH: EVQLVESGGGLVQPGGSLRLSCAASGFSLSTGGVAVGWIRQAPGKGLEWLALIDWAGDKSYSTSLKSRLTISRDNSKNTLYLQLNSLRAEDTAVYYCAREGEDAVTGDWFAYWGQGTLVTVSS VL: DIQLTQSPSSLSASVGDRVTITCQASQDIRTYLAWYQQKPGKAPKLLIYDASNRATGIPSRFSGSGSGTDFTLTISSLQPEDFATYYCQQGYSIWTFGQGTKVEIKR
2. AG10125 (antibody, human IgG4 S228P, kappa, V domains shown, also called IgG of Fab 5314) VH: EVQLVESGGGLVQPGGSLRLSCAASGFSLSTGGVAVGWIRQAPGKGLEWLALIDWAGDKSYSTSLKSRLTISRDNSKNTLYLQLNSLRAEDTAVYYCARGGSDTVLGDWFAYWGQGTLVTVSS VL: DIQLTQSPSSLSASVGDRVTITCRASQGVSPYLAWYQQKPGKAPKLLIYDASNRATGIPSRFSGSGSGTDFTLTISSLQPEDFATYYCQQGYSTWTFGQGTKVEIKR
3. AG10129 (antibody, human IgG4 S228P, kappa, V domains shown, also called IgG of Fab 5353) VH: EVQLVESGGGLVQPGGSLRLSCAASGFTFSSYWIHWVRQAPGKGLEWVSVISGDGDTTYYADSVKGRFTISRDNSKNTLYLQLNSLRAEDTAVYYCARSRGLVLDAFDYWGQGTLVTVSS VL: DIQLTQSPSSLSASVGDRVTITCRASQSVSGRFLAWYQQKPGKAPKLLIYDASSLESGVPSRFSGSGSGTDFTLTISSLQPEDFATYYCQQYDYWPPYTFGQGTKVEIKR
4. AG10124 (antibody, human IgG4 S228P, kappa, V domains shown, also called IgG of Fab 5302) VH: EVQLVESGGGLVQPGGSLRLSCAASGFSLSTGGVGVAWIRQAPGKGLEWVSSISGYGSTTYYADSVKGRFTISRDNSKNTLYLQLNSLRAEDTAVYYCAREGSDAVLGDWFGYWGQGTLVTVSS VL: DIQLTQSPSSLSASVGDRVTITCQASQDITTYLAWYQQKPGKAPKLLIYDASNRATGIPSRFSGSGSGTDFTLTISSLQPEDFATYYCQQGYYLWTFGQGTKVEIKR
5. AG10132 (antibody, human IgG4 S228P, kappa, V domains shown, also called IgG of Fab 5408) VH: EVQLVESGGGLVQPGGSLRLSCAASGYSITSGYHWSWIRQAPGKGLEWVSSISGYGDTTYYADSVKGRFTISRDNSKNTLYLQLNSLRAEDTAVYYCAREGSDTVLGDWFAYWGQGTLVTVSS VL: DIQLTQSPSSLSASVGDRVTITCQASQDIRTYLAWYQQKPGKAPKLLIYDASNLETGVPSRFSGSGSGTDFTLTISSLQPEDFATYYCQQGYSIWTFGQGTKVEIKR
6. AG10082 (antibody, human IgG4 S228P, kappa, V domains shown, also called IgG of Fab 5300) VH: EVQLVESGGGLVQPGGSLRLSCAASGYTFSNYWIHWVRQAPGKGLEWVSYISGDGDTTYYADSVKGRFTISRDNSKNTLYLQLNSLRAEDTAVYYCAREGSTTVAGDWFAYWGQGTLVTVSS VL: DIQLTQSPSSLSASVGDRVTITCRASQGIGSFLGWYQQKPGKAPKLLIYDASSLESGVPSRFSGSGSGTDFTLTISSLQPEDFATYYCQQYYSLVTFGQGTKVEIKR

1. 3 nM
2. 15 nM
3. 19 nM
4. 6 nM
5. 69 nM
6. 13 nM
